procedureSummary: Pharmacokinetic study of CLDN18.2-linker conjugates (serum ELISA, NCA)
Type: in vivo, BALB/c mice
measurementParameters: BALB/c mice, intravenous, about 1 mg/kg, serum, over 48 hours
# if value of Vd reaches 0.2 L/kg, tag class 1; if it stays below, tag class 0

1) CLDN18.2-L012: Claudin 18.2 sdAb (SEQ ID NO. 1) conjugated with functional linker L012 (conjugate, functional linker L012 conjugated) VHH: EVQLVESGGGLVQPGGSLRLSCAASGSFFRIVAMGWYRQAPGSQRELVATITRGGSTYYADSVKGRFTISRDNAKNTLYLQMNSLRAEDTAVYYCNVRVEVPFMQPNDYWGQGTLVTVSS
class 0
2) CLDN18.2-L009: Claudin 18.2 sdAb (SEQ ID NO. 1) conjugated with functional linker L009 (conjugate, functional linker L009 conjugated) VHH: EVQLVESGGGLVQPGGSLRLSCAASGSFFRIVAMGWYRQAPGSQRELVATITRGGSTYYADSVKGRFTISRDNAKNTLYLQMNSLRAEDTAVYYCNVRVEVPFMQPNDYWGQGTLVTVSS
class 0
3) CLDN18.2-L011: Claudin 18.2 sdAb (SEQ ID NO. 1) conjugated with functional linker L011 (conjugate, functional linker L011 conjugated) VHH: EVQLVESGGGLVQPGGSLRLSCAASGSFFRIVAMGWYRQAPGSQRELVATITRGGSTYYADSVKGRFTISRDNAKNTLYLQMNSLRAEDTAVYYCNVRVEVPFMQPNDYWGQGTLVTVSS
class 0
4) CLDN18.2-L007: Claudin 18.2 sdAb (SEQ ID NO. 1) conjugated with functional linker L007 (conjugate, functional linker L007 conjugated) VHH: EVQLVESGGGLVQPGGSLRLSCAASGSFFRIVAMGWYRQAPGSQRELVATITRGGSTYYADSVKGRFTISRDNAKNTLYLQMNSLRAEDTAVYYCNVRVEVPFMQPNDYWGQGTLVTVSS
class 0
5) CLDN18.2-L003: Claudin 18.2 sdAb (SEQ ID NO. 1) conjugated with functional linker L003 (conjugate, functional linker L003 conjugated) VHH: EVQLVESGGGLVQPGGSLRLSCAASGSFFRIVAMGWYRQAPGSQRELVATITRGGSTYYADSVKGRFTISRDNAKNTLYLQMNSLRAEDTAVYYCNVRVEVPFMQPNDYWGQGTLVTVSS
class 1
